Examples of compounds with documented Kpuu (unbound brain-to-plasma partition coefficient) follow.
- METHOD_SUMMARY: Kpuu assay (in vivo brain-to-plasma unbound partition)
- CONDITION_NOTES: brain (unbound) versus plasma (unbound); intravenous infusion 4 to 24 h; unbound brain/plasma ratio; read-out: Brain Kpu, u
READOUT_LABEL: Kpuu (unbound brain-to-plasma partition coefficient)

[
  {
    "COMPOUND": "CC(C)Oc1cc2nc([C@@]34CC[C@@](C)(C3)OC4)cn2cc1C(=O)Nc1cccn(C2CC2)c1=O (single isomer, unassigned)",
    "READING": 0.26
  },
  {
    "COMPOUND": "O=C(Nc1cccn(C2CC2)c1=O)c1cn2cc(C34COC(CF)(C3)C4)nc2nc1OC1CCC1",
    "READING": 0.45
  },
  {
    "COMPOUND": "Cc1cnc2c(NC(=O)c3cn4cc(C56CCC(C)(CC5)OC6)nc4nc3OC(C)C)cnn2c1 [Comparator 6B, reference compound]",
    "READING": 0
  }
]
